Values were extracted from the supplement of paper PMC12645437.

- TESTED SYSTEM: T1, CRBN, Q96SW2;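 further: pooled lentiviral library of zinc finger degron-EGFP fusions in mCherry-positive Jurkat cells, FACS-sorted after compound exposure, with degron abundance counted by next-generation sequencing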
- T1 chain: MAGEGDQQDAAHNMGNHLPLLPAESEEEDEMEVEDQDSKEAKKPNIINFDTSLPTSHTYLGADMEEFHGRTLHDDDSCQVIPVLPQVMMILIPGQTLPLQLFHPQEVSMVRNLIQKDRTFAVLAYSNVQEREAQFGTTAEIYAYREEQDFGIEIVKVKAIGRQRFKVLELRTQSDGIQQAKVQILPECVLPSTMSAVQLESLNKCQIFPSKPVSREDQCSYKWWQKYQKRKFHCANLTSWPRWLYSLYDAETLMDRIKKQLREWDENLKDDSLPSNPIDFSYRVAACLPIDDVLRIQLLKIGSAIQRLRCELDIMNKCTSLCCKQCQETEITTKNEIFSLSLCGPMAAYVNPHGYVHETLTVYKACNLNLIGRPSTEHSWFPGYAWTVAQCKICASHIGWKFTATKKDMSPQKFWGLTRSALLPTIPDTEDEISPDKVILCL
- TEST NAME: log2 fold change of degron read counts, EGFP-low vs EGFP+ sorted cells (limma voom), compound-induced degradation; higher = more compound-induced degradation of the degron-EGFP fusion; degrons are variants of IKZF1/3 zinc finger 2; compound dose not given here
- MEASUREMENT CONTEXT: Jurkat; 18 h; compound: thalidomide
Over roughly 8,300 sequences, “log2 fold change of degron read counts, EGFP-low vs EGFP+ sorted cells (limma voom), compound-induced degradation” has its median near -1.1; the highest 2% begin near 3.2. This excerpt belongs to a sample that is enriched for the highest values.
# log2 fold change of degron read counts listing for each entry below
PROPERTY: log2 fold change of degron read counts

LWCPICGFPCTQKGNLLRHIKL [46L_47W_49P_50I_52G_53F_54P_55C_67L_, Q9UKT9]    1.22
FRCSVCGHMFTQKGNLLRHIKL [46F_47R_49S_50V_52G_53H_54M_55F_67L_, Q9UKT9]    -2.23
FSCEVCGACFTQKGNLLRHIKL [46F_47S_49E_50V_52G_53A_54C_55F_67L_, Q9UKT9]    1.34
FWCPVCGAFFTQKGNLLRHIKL [46F_47W_49P_50V_52G_53A_54F_55F_67L_, Q9UKT9]    0.614
LACNQCGFECTQKGNLLRHIKL [46L_47A_49N_50Q_52G_53F_54E_55C_67L_, Q9UKT9]    -2.24
FFCDQCGANFTQKGNLLRHIKL [46F_47F_49D_50Q_52G_53A_54N_55F_67L_, Q9UKT9]    -2.4
FYCEVCGACFTQKGNLLRHIKL [46F_47Y_49E_50V_52G_53A_54C_55F_67L_, Q9UKT9]    1.37
